Target or system human JAK1 (aa 850-1154) catalytic domain (Homo sapiens); recorded quantity IC50.

// known answers, use as guide
- SMILES_TEXT: "C[C@H](Nc1nc(Nc2ccc[nH]c2=O)ncc1C(N)=O)c1ccc(F)cn1"
  IC50: "100 to 1000 nM"
- SMILES_TEXT: "COc1cnc(Nc2ccc[nH]c2=O)nc1N[C@@H](C)c1ccc(F)cn1"
  IC50: "< 100 nM"
- SMILES_TEXT: "Cc1cnc(Nc2cc(Cl)c[nH]c2=O)nc1N[C@@H](C)c1ccc(F)cn1"
  IC50: "< 100 nM"

Shifting focus to the molecule that follows.
Requested field: IC50. Item: `N#CCC(=O)N1CCC[C@@H](Nc2nc(Nc3ccc[nH]c3=O)ncc2F)C1` < 100 nM

Reference source: patent US9034311B2
